Listing of recorded Kd by entry.
Target: T1, soluble form of the extracellular domain of human TweakR (human, UniProt Q9NP84 28-80)
T1 construct: also called soluble TweakR extracellular domain
T1 sequence: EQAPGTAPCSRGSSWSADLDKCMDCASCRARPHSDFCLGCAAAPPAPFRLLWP
Experiment: Biacore; antibody captured by immobilized anti-Fc, soluble TweakR extracellular domain injected

- binder: "murine anti-TweakR antibody 136.1 (antibody, V domains shown, Mouse monoclonal antibody) VH: EVKLEESGGGLVQPGGSMKLSCVASGFTFNNYWMSWVRQSPEKGLEWLAEIRLKSDNYATHYAESVKGKFTISRDDSKSRLYLQMNNLRAENTGIYYCTGGFADYFDYWGQGTTLTVSS VL: DIVLTQSPASLTVSLGQRATISCRASQSVSTSSYSYMQWYQQRPGQPPKLLIKYATNLDSGVPARFSGSGSGTDFTLNIHPVEEEDAATYYCQHSWEIPYTFGGGTKLEIKR"
  Kd (pM): 680
- binder: "murine anti-TweakR antibody 18.3.3 (antibody, V domains shown, Mouse monoclonal antibody) VH: EVKLGESGGGLVQPGGSMKLSCVASGFPFTKYWMNWVRQSPEKGLEWVAEIRLKSDNYATHYAESAKGRFTISRDDSRSSVYLQMNNLRAEDTAIYYCSPTYADTMDYWGQGTSVTVSS VL: DIVLTQSPASLAVSLGQRATISCKASQSVSTSTYSYMQWYQQRPGQSPKLLIKYASKLDSGVPARFSGSGSGTDFTLNIHPVEEEDTATYYCQHSWELPYTFGGGTRLEIKR"
  Kd (pM): 230
- binder: "humanized anti-TweakR antibody PDL400 (antibody, V domains shown, constant regions not expressly stated) VH: QVQLVQSGAEVKKPGASVKISCKVSGYTFTDFIIAWVKQAPGKGLEWIGEIYPGTGRTYYSEKFRGKATLTADKSTSTAYMELSSLRSEDTAVYYCARRTIYYDYDGDYWGQGTTVTVSS VL: DIVMTQSPLSLPVTPGEPASISCRSSKSLLHSNGITYLYWYLQKPGQSPQLLIYQMSNLASGVPDRFSSSGSGTDFTLKISRVEAEDVGVYYCAHNLELPWTFGGGTKVEIK"
  Kd (pM): 580
- binder: "murine anti-TweakR antibody 19.2.1 (antibody, mouse IgG2a, V domains shown) VH: EVKLEESGGGLVQPGGSMKLSCVASGFTFSSYWMSWVRQSPEKGLEWVAEIRLKSDNYATHYAESVKGKFTISRDDSKSRLYLQMNSLRAEDTGIYYCTGYYADAMDYWGQGTSVTVSS VL: DIVLTQSPASLAVSLGQRATISCRASQSVSTSSYSYMHWYQQKPGQPPKLLIKYASNLESGVPARFSGSGSGTDFTLNIHPVEEEDTATYYCQHSWEIPYTFGGGTKLEIK"
  Kd (pM): 7120

Attribution: patent US20090074762A1
